Values compiled from the RNAGym collection of RNA variant scans (doi:10.1073/pnas.2313332121).

Documented polymerase ribozyme fitness (log ratio) across a set of variants
B1: TPR 5TU (parent)
chain: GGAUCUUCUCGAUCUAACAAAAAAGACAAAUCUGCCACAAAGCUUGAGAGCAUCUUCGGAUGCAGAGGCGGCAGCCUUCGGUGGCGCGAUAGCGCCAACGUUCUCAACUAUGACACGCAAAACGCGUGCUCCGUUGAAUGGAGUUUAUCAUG

Variants of: B1
Assay: polymerase ribozyme fitness, log enrichment relative to wild type (log ratio); higher = more active; in vitro selection for triplet polymerase activity
Fewer inactive variants are shown than the library holds.

>  <variant>
C10U A41G A64G G65C A91C

>  <value_modifier>
≤

>  <polymerase ribozyme fitness (log ratio)>
-4.2

$$$$
>  <variant>
U4A C5U C32A C54U G58A A73G G84A A91G A121U C125U U145C U146C

>  <value_modifier>
≤

>  <polymerase ribozyme fitness (log ratio)>
-4.2

$$$$
>  <variant>
C105G C118A

>  <value_modifier>
=

>  <polymerase ribozyme fitness (log ratio)>
-3.26

$$$$
>  <variant>
A24U A52G A106G G143A

>  <value_modifier>
=

>  <polymerase ribozyme fitness (log ratio)>
-1.81

$$$$
>  <variant>
C69A G83C U101G

>  <value_modifier>
≤

>  <polymerase ribozyme fitness (log ratio)>
-4.2

$$$$
>  <variant>
C54A U61G

>  <value_modifier>
=

>  <polymerase ribozyme fitness (log ratio)>
-1.82

$$$$
>  <variant>
U61G C93U

>  <value_modifier>
=

>  <polymerase ribozyme fitness (log ratio)>
-1.89

$$$$
>  <variant>
U55A C69U G136A

>  <value_modifier>
=

>  <polymerase ribozyme fitness (log ratio)>
-3.04

$$$$
>  <variant>
G59U U78G C79A C87U U109G A110U

>  <value_modifier>
=

>  <polymerase ribozyme fitness (log ratio)>
-3.99

$$$$
>  <variant>
U6A C54A C95G A98U

>  <value_modifier>
=

>  <polymerase ribozyme fitness (log ratio)>
-2.26

$$$$
>  <variant>
A40G G50U U56A G83C

>  <value_modifier>
=

>  <polymerase ribozyme fitness (log ratio)>
-4.02

$$$$
